meta.source: ChEMBL document CHEMBL4229469

Reported values of Ki for individual entries
target: DNA repair protein REV1 (Homo sapiens, UniProt Q9UBZ9); experiment: Displacement of FAM-labelled polkappa-RIR peptide from recombinant human C-terminal Rev1 (1158 to 1251 residues) expressed in Escherichia coli BL21(DE3) after 1 hr by fluorescence polarization assay
Number in µM, nothing else.

Below, 4 molecules whose answers are already recorded.
• CCCCc1ccc(-n2nnc(C(=O)N(C)C3CCS(=O)(=O)C3)c2C)cc1 (stereo not given) = 4.9
• CCCc1cc(C(=O)OC)c(NC(=O)C2CCN(C(C)=O)CC2)s1 = 3.6
• CCS(=O)(=O)N(C)c1ccc(C(=O)N2CCN(c3ccccc3OC)CC2)cc1 = 4.7
• CC(=O)N1CCC(C(=O)Nc2sc3c(c2C(N)=O)CCC(C)C3)CC1 (stereo not given) = 15.7

Incoming: Look up Ki: CCn1c2ccccc2c2cc(NC(=O)N3CCC(C(C)=O)CC3)ccc21
Outgoing: 8.9

----------
Target: DNA repair protein REV1 (Homo sapiens)
Sequence (Q9UBZ9 whole entry): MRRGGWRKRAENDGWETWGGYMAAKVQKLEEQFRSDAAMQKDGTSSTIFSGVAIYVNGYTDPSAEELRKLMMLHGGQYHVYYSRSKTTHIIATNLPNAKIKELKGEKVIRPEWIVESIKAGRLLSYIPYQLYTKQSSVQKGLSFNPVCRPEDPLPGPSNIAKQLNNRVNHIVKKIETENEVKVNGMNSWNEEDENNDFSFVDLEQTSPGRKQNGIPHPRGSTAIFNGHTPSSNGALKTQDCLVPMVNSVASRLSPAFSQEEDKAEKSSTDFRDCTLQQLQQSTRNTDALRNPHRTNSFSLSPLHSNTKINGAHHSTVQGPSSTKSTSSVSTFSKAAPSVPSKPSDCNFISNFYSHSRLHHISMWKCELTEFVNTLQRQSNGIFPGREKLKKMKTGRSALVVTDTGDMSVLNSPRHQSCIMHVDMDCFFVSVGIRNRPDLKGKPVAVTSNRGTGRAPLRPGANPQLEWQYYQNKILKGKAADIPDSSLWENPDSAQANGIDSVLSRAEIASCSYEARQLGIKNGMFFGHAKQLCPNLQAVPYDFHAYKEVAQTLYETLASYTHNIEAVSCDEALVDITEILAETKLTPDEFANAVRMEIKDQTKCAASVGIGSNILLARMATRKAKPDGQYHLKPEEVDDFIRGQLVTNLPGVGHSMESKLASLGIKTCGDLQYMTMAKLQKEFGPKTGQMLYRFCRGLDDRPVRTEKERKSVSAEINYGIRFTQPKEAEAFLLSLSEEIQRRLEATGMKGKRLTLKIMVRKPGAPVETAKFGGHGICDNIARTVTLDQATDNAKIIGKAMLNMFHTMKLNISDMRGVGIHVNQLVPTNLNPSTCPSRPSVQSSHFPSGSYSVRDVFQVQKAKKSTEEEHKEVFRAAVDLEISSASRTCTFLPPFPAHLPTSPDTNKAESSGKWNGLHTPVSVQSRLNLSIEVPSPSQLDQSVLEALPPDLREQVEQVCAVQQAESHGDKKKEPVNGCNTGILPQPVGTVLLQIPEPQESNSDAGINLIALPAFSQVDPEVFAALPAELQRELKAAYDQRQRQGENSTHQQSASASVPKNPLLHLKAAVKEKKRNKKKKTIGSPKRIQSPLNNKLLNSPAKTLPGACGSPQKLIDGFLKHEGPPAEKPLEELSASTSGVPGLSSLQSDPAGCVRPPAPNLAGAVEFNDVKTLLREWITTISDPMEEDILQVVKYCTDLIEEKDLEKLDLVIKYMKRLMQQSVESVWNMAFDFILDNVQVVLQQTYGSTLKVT
Test: Displacement of FAM-labelled polkappa-RIR peptide from recombinant human C-terminal Rev1 (1158 to 1251 residues) expressed in Escherichia coli BL21(DE3) after 1 hr by fluorescence polarization assay
Reported values of IC50 for individual entries

Incoming: Look up IC50: COC(=O)c1cc(C)sc1NC(=O)C1CCN(C(C)=O)CC1
Outgoing: 9.4 µM

Incoming: Next molecule: N#Cc1ccc(NC(=O)CN2CCN(c3ccc(F)cc3)CC2)cc1
Outgoing: > 50 µM

Incoming: Next molecule: CC(=O)N1CCC(C(=O)Nc2sc3c(c2C(=O)NC2CC2)CCCC3)CC1
Outgoing: 21.5 µM

----------
target: DNA repair protein REV1 (Homo sapiens, UniProt Q9UBZ9); experiment: Displacement of FAM-labelled polkappa-RIR peptide from recombinant human C-terminal Rev1 (1158 to 1251 residues) expressed in Escherichia coli BL21(DE3) after 1 hr by fluorescence polarization assay
Reported values of log10 Ki for individual entries
Field: value | Transform: log10 | Quantity: Ki | Unit: µM

• COc1ccc(OC)c(-c2csc(N3CCN(C(=O)c4ccco4)CC3)n2)c1 = 0.68

Incoming: Look up log10 Ki: CC(C)(C)C(=O)N1CCN(c2ccc(NC(=O)c3cccnc3)cc2Cl)CC1
Outgoing: 1.28

----------
Molecular target: DNA repair protein REV1 (Homo sapiens, UniProt Q9UBZ9)
Sequence (Q9UBZ9 whole entry): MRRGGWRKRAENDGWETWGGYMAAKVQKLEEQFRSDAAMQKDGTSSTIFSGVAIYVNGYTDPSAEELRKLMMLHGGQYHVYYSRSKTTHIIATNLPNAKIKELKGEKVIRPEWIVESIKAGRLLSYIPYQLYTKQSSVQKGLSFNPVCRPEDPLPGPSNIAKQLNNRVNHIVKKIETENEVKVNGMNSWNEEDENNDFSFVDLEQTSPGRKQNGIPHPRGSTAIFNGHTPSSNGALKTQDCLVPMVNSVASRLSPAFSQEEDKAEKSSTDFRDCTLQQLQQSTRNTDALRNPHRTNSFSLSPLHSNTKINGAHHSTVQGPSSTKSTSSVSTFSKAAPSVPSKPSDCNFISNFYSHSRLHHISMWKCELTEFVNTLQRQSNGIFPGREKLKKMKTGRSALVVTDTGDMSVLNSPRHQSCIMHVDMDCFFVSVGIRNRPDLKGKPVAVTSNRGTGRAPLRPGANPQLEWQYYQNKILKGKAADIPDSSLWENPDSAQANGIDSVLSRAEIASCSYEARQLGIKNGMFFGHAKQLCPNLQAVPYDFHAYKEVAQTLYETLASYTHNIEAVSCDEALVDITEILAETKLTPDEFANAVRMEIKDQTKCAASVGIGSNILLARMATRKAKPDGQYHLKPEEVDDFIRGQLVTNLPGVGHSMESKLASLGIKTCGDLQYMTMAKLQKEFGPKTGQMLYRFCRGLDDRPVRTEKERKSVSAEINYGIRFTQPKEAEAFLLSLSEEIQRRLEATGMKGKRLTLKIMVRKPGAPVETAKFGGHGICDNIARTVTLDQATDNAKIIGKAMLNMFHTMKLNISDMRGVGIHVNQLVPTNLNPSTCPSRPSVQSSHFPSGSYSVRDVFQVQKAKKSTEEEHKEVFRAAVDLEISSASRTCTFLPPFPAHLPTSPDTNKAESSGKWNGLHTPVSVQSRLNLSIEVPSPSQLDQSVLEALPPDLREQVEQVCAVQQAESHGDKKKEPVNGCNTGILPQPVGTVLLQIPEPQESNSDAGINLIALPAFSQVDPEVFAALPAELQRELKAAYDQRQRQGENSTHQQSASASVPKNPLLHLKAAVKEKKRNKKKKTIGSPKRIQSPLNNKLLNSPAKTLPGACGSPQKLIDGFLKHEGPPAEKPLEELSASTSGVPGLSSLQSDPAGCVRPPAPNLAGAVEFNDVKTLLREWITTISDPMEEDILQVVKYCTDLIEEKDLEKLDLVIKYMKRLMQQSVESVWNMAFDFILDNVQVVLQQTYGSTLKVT
Experiment: Displacement of FAM-labelled polkappa-RIR peptide from recombinant human C-terminal Rev1 (1158 to 1251 residues) expressed in Escherichia coli BL21(DE3) after 1 hr by fluorescence polarization assay
measuredParameter: Kd (µM)
Number in µM, nothing else.

- CCn1c2ccccc2c2cc(NC(=O)N3CCC(C(C)=O)CC3)ccc21: 6.9
- CC(=O)N1CCC(C(=O)Nc2sc3c(c2C(=O)NC2CC2)CCC(C)C3)CC1 (stereo not drawn): 4.4

Please examine the following record next.
Incoming: Look up Kd: COc1cc2c(cc1OC)CN(Cc1ccc(OCc3ccccc3)cc1)CC2
Outgoing: 12.6

----------
system: U2OS; experiment: Potentiation of cisplatin-induced cytotoxicity in cisplatin-resistant human U2OS cells assessed as cisplatin GI50 at 25 uM after 72 hrs by MTS assay (reference value: 23.9 +/- 1.9 uM); format: functional
measuredParameter: GI50
State the result as a value with its unit after it.

Below, 3 molecules whose answers are already recorded.
- CC(=O)N1CCC(C(=O)Nc2sc3c(c2C(=O)NC2CC2)CCC(C)C3)CC1 (stereo not given): 24.4 µM
- CC(=O)C(C)n1c(CN2CCN(c3cccc(Cl)c3)CC2)nc2c1c(=O)n(C)c(=O)n2C (stereo not given): 12.3 µM
- CCS(=O)(=O)N(C)c1ccc(C(=O)N2CCN(c3ccccc3OC)CC2)cc1: 13.3 µM

Incoming: Look up GI50: CCCCc1ccc(-n2nnc(C(=O)N(C)C3CCS(=O)(=O)C3)c2C)cc1 (stereo not given)
Outgoing: 25.7 µM

Incoming: Next molecule: CCCc1cc(C(=O)OC)c(NC(=O)C2CCN(C(C)=O)CC2)s1
Outgoing: 12.6 µM
